run description: in vitro
condition: human, plasma, pH 7.4, % bound to plasma
// reported fraction unbound at 4 h, 2 μM for each item listed

| compound | fraction unbound at 4 h, 2 μM |
| --- | --- |
| O=C(Cc1cccs1)N[C@@H]1C(=O)N2C(C(=O)O)=C(CSc3cccc[n+]3[O-])CS[C@H]12 | 0.22 |
| O=C(O)C1=C(CSc2cccc[n+]2[O-])CS[C@@H]2[C@H](NC(=O)/C(=N\Oc3ccccc3)c3ccco3)C(=O)N12 | 0.129 |
| O=C(CCCC(NC(=O)c1ccc(Cl)cc1Cl)C(=O)O)N[C@@H]1C(=O)N2C(C(=O)O)=C(CSc3cccc[n+]3[O-])CS[C@H]12 (some centres unmarked) | 0.143 |
| CN(C)C(=S)SCC1=C(C(=O)O)N2C(=O)[C@@H](NC(=O)Cc3cccs3)[C@H]2SC1 | 0.034 |
| O=C(Cc1ccc(C2=NCCN2)cc1)N[C@@H]1C(=O)N2C(C(=O)O)=C(CSc3nncs3)CS[C@H]12 | 0.619 |

###

Test system: plasma proteins
run description: Plasma protein binding (equilibrium dialysis), human
condition: 2 μM

| compound | % bound to plasma, Human / % |
| --- | --- |
| Cn1nnnc1SCC1=C(C(=O)O)N2C(=O)[C@@H](NC(=O)Cc3ccc(C4=NCCCN4)cc3)[C@H]2SC1 | 24.6 |
| CCCc1nnc(SCC2=C(C(=O)O)N3C(=O)[C@@H](NC(=O)Cc4ccc(C(=N)N)cc4)[C@H]3SC2)s1 | 65.7 |
| O=C(O)C1=C(CSc2cccc[n+]2[O-])CS[C@@H]2[C@H](NC(=O)C(F)c3ccccc3)C(=O)N12 (stereo partly drawn) | 74.1 |
| CNCc1ccccc1CC(=O)N[C@@H]1C(=O)N2C(C(=O)O)=C(CSc3nnnn3C)CS[C@H]12 | 21.1 |
| CON=C(C(=O)N[C@@H]1C(=O)N2C(C(=O)O)=C(CSc3cccc[n+]3[O-])CS[C@H]12)c1csc(N)n1 | 56.9 |
| CCc1nnc(SCC2=C(C(=O)O)N3C(=O)[C@@H](NC(=O)Cc4ccc(C5=NCCN5)cc4)[C@H]3SC2)s1 | 60.7 |
| NCc1ccccc1CC(=O)N[C@@H]1C(=O)N2C(C(=O)O)=C(CSc3nnnn3CCO)CS[C@H]12 | 23.3 |
| CC(=O)OCC1=C(C(=O)O)N2C(=O)[C@@H](NC(=O)CSc3ccncc3)[C@H]2SC1 | 38.7 |
| Cn1c(SCC2=C(C(=O)O)N3C(=O)[C@@H](NC(=O)Cc4ccccc4CN)[C@H]3SC2)nnc(O)c1=O | 15.9 |

###

// reported E.coli R + CLAV (MIC90) for each item listed
System: E. coli
run description: Microbial spectrum, E. coli
Assay type: cell-based, Escherichia coli
condition: clavulanate 4 μg/mL; Table S4
assay endpoint: E.coli R + CLAV (MIC90) (µM)

| compound | limit operator | readout value |
| --- | --- | --- |
| CC(=O)OC(C(=O)N[C@@H]1C(=O)N2C(C(=O)O)=C(CSc3cccc[n+]3[O-])CS[C@H]12)c1ccccc1 (stereo partly shown) [TBBL-0000007] | = | 85.1 |
| Cc1nnc(SCC2=C(C(=O)O)N3C(=O)[C@@H](NC(=O)Cc4sc(=O)sc4C)[C@H]3SC2)s1 [TBBL-0000330] | > | 100 |
| CCc1nnc(SCC2=C(C(=O)O)N3C(=O)[C@@H](NC(=O)Cc4ccc(C5=NCCN5)cc4)[C@H]3SC2)s1 [TBBL-0000310] | = | 49.9 |
| O=C(CSc1cccc[n+]1[O-])N[C@@H]1C(=O)N2C(C(=O)O)=C(CSc3cccc[n+]3[O-])CS[C@H]12 [TBBL-0000003] | = | 44.1 |
